- PROTOCOL_DETAILS: yeast display, Sf9 membrane polyspecificity reagent, FACS + sequencing; frameworks hold sequencing errors
MEASURED_ATTRIBUTE: polyreactivity (PSR sort gate)

SEQUENCE_INPUT	MEASURED_ATTRIBUTE	RECORDED_RESULT
QVQLVESGGGLVQAGGSLRLSCAASGFIFYSYAMGWYRQAPGKERELVAAISTSGGSTYYADSVKGRFTISRDNAKNTVYLQMNSLKPEDTAVYYCNARGTRASRYDYWGQGTQVTVSS	polyreactivity (PSR sort gate)	high polyreactivity
QVQLVESGGGLVQAGGSLRLSCAASGLIFYKNAMGWYRQAPGKEREFVAAISRSGASTYYADSVKARFTISRDNAKNTVYLQMNSLKPEDTAVYYCAARAGANYRMDYWGQGTQVTVSS	polyreactivity (PSR sort gate)	high polyreactivity
QVHLVESGGGLVQAGGSLRLSCAASGRIFDYYTMGWYRQAPGKERELVAAITWIGGSTYYEDSVKGRFTISRDNAKNTVYLQMNSLKPEDTAVYYCYAEGTALPYRADTVGGYYYWGQGTQVTVSS	polyreactivity (PSR sort gate)	low polyreactivity
QVQLVESGGGLVKAGGSLRLSCASSGYIFPFNAMGWYRQAPGKERELVAAITNGGRTYYADSVKGRFTISRDNAKNTVYLQMNSLKPDDTSVYYCAAGSKSDMDWGQGTQVTVSS	polyreactivity (PSR sort gate)	low polyreactivity

Entry QVQLVESGGGLVQAGGSLRLSCAASGGTFYYYAMGWYRQPPGKERELGAAITGTGGRTYYADSVKGRFTISRDNAKNTVSLQMNSLKPEDTAVYYCATDALYGSGYDYWGQGTQVTVSS has what polyreactivity (PSR sort gate)?
high polyreactivity

Entry QVQLQESGGGLVQAGGSLRLSCAASGYISHADEMGWYRQAPGKEHELVASISNGGSTNYADSVKGRFTISRDNAKNTVYLQMNSLKSELTAVYYCAAWTGQVDIHYYWGQGTQVTVSS has what polyreactivity (PSR sort gate)?
low polyreactivity

Entry QVQLVESGGGLVQAGGSLRLSCAASGFTFEYYTMGWYRQAPGTERELVAAITKRGGSTYYADSVKGRFTISRDNAKNTVYLQMNSLKPEDTAVYYCAVRKPYSRYTVNYDSWGQGTQVTVSS has what polyreactivity (PSR sort gate)?
high polyreactivity

----------
- PROTOCOL_DETAILS: yeast display, Sf9 membrane polyspecificity reagent, FACS + sequencing; frameworks hold sequencing errors
MEASURED_ATTRIBUTE: polyreactivity (PSR sort gate)

Study these solved cases before continuing.
SEQUENCE_INPUT	MEASURED_ATTRIBUTE	RECORDED_RESULT
QVQLVESGGGLVQAGGSLRLSCAASGSTFRIYAMGWYRQAPGKERELVARISWNGGRTYYADSVKGRFTISRDNAKNTVYLQMNSLKPEDTAVYYCNARSQGWYYFPDNDYWGQGTQVTVSS	polyreactivity (PSR sort gate)	high polyreactivity
QVQLVESGGGLVQAGGSLRLSCAASGSTFETNAMGWYRQAPGKERELVAAISVSGGDTYYADSVKGRFTISRDNAKNTVYLQMNSLKPEDTAVYYCAAAERGYIFPDRMRYDYWGQGTQVTVSS	polyreactivity (PSR sort gate)	low polyreactivity
QFQLVESGGGFVQAGGSLRLSCAASGSIFLYNDMGWYRQAPGKERELVPAITSDGSTNYADSVKGRFTISRDNAKNTFYLQMNSLKPEDTAVYYCAADALWFYLNWYYGGTAYGYWGQGTQVTVSS	polyreactivity (PSR sort gate)	low polyreactivity
QVQLVESGGGLVQAGGSLRLSCAASGRTFIGNAMGWYRQAPGKERELVATITSSAGTTYYADSVKGRFTISRDNAKNTVYLQMNSLKPEDTAVYYCAKRIWRSYPYRAYYSEFGYWGQGTQVTVSS	polyreactivity (PSR sort gate)	high polyreactivity
QVKLVESGGGLVQAGGSLRLSCAASGSTFLYYGMGWYRQAPGTERELVATITWRGGRTYYADSVKGRFTISRDNAKNTVYLQMNSLKPEDTAVYYCAARVVGSYRKPYPYGLYYWGQGTQVTVSS	polyreactivity (PSR sort gate)	high polyreactivity
QVQLVESGGGLVQSGGSLRLSCADSVRTFNYYAMGWYRQAPGKERELVATISWSGVSTRYADSVKGRFTISRDNEKNTVYLQMNSLKPEDTAVYYCNAGYSKRSFYSAYGYWGQGTQVTVSS	polyreactivity (PSR sort gate)	high polyreactivity
QVQLVESGGGLVQAGGSLRLSCAASGSTFAVNAMGWYRQAPGKERELVAAISGSGGRTYYADSVKGRFTISRDNAKNTVYLQMNSLKPEETAFYYCATELRAPYRSSGAYHYDYWGQGTQVTVSS	polyreactivity (PSR sort gate)	low polyreactivity
QVQLVESGGGLVQAGGSLRLSCAASGSIFDYYAMGWYRQAPGKERELVADITSGGSTNYADSVKGRFTISRDNAKNTVYLQMNSLKPEDTAVYYCNALASRYPAYYYWGQGTQVTVSS	polyreactivity (PSR sort gate)	low polyreactivity

Entry QVQLVESGGGLVQAGGSLRLSCAASGSNFLIYAMGSYSQAPGKERELVAAITFSGCSTYADSVKGRFTISRENAKNTVYLQMNSLKPEDTAVYYCAADSTKYAYDYWGQGTQVTVSS has what polyreactivity (PSR sort gate)?
low polyreactivity

Entry QVQLVESGGGLVQAGGSLRLSCAASGRIFSAYAMGLYRQAPGKERELVAAITSVGSTKYADSVKGRFTISRDNAKNTVYLQMNSLIPEDTAVYYCAAEYTRSFYIYYRFGYWGQGTQVTVSS has what polyreactivity (PSR sort gate)?
high polyreactivity

Entry QVQLVESGGGLVQAGGSLRLSCAASGFIFYDYAMGWYRQAPGKERELVAAITVDGGTTYYADSVKGRFTISRDNAKNTVYLQMNSLKPEDTAVYYCAADTYYGFDSNYEYCGQGTQVTVSS has what polyreactivity (PSR sort gate)?
low polyreactivity

Entry QVQLVESGGGLVQAGGSLRLSCAASGRIFAQNAMGWYRQAPRNERELVAGISYGGGRTYYADSVKGRFTISRDKAKNTVYLQMNSLKPEDTAVYYCAKAVNSPRKYQLGNGYWGQGTQVTVSS has what polyreactivity (PSR sort gate)?
high polyreactivity

Entry QVQLVESGGGLVQAGGSLRLSCAASGRTFYLYAMGWYRQAPGKERELVAAITSGGSTYYADSVKGRFTISRDNAKNTVYLQMNSLKPEDTAVYYCAKRPVSVGYGYPRVSWGYDYWGQGTQVTVSS has what polyreactivity (PSR sort gate)?
high polyreactivity

----------
- PROTOCOL_DETAILS: yeast display, Sf9 membrane polyspecificity reagent, FACS + sequencing; frameworks hold sequencing errors
MEASURED_ATTRIBUTE: polyreactivity (PSR sort gate)

Study these solved cases before continuing.
SEQUENCE_INPUT	RECORDED_RESULT
QVQLVESGGGLVQAGGSLRLSCAASGSIFEGYVMGWYRQAPGKERELVAAITTGGGSTYYADSVKGRFTISRDNAKKTVYLQMNSLKPEDTAVYYCAKDYWFGYEYWGQGTQVTVSS	low polyreactivity
QVQLVESGGGLVQAGGSLRLSCAASGITFYGYAMGWYRQAPGKERELVARISSGGTTKYADSVKGRFTISRDNAKNTVYLQMNSLKPEDTAVYYCAVGGYWWYYGFYYWGQGTQVTVSS	high polyreactivity
QVQLVESGGGLVQAGGSLRLSCAASGLTFNRYAMGWYRQARGKERELVAAISINGGSTYYADSVKGRFTISRDNAKNTVYLQMNSLKPEDTAVYYCAARRVQRPSTYGYWGQGTQVTVSS	high polyreactivity
QVQLVESGGGLVQAGGSLRLSCAASGRIFDYYAMGSYRQAPGNERELVDAISSGDNTYYADSVKGRFTISRDNAKNTVYLQMNSLKPEDTAVYYCAADVSRFGYYGIGFYYWRQGTQVTVSS	low polyreactivity

Entry QVQLVESGGGLVQAGGSLRLICAASGRIFTYNGMGWYRQAPGKERELVAAISSGGSTYADSVKGRFTISRDNAKNTVYLQMNSLKPEDTAVYYCAAVKGYQGSSYQRVDWEGDYWGQGTQVSVSS has what polyreactivity (PSR sort gate)?
low polyreactivity

Entry QVQLVESGGGLVQAGGSLRLSCAASGSTFPRNAMGWYRQAPGKERELVAAISYSGGRTYYADSVKGRFTISRDNAKNTVYLQMNSLKPEDTAVYYCAAQPYSLVRGKSYGYWGQGTQVTVSS has what polyreactivity (PSR sort gate)?
high polyreactivity

Entry QLQLVESGGRLVQAGGSLRLSCAASGFIFRWNAMGCYIQAPGKASEFVAAITSSTGSTYYAVSVKGRFTISRDNAKNTVYLQMNSLKPEDTAVYDCAADKRGTVYLSSFWMDYWGQGTQVTVSS has what polyreactivity (PSR sort gate)?
low polyreactivity

Entry QVQLVESGGGLVQAGGSLRLSSAASGRTFRHYALGWSRQAPGKERELVAVISWRGTGTYYADSVKGRFTISRDNAKNTVYLQMTSLKPEDTSVYYCATVWGLGYRMNYWGQGTQVTVSS has what polyreactivity (PSR sort gate)?
high polyreactivity

Entry QVQLVESGGGLVQAGGSRRLSCAASGLIYWYAMGWYRQAPGKERELVAAISSNGGSTYYADSVKGRFTISRDNAKNTVYLQMNSLKPEDTAVYYCAVTSFGYSVLERDYWGQGTQVTVSS has what polyreactivity (PSR sort gate)?
low polyreactivity

Entry QVQLVESGGGLDQAGGSLRLSCAASGSTFVYNVMGWYRQAPGKERELVAAITSGVRTYYADSEKGRFTISRDNAKNTGYLQMNSLKPEDTAVYYCATGWRNAKYYYWGQGTQVNVSS has what polyreactivity (PSR sort gate)?
high polyreactivity

Entry QVQHVESGGGLVQAGGSLRLSCAASGSIISYYAMGWSRQQPGKERELVAAITANGGSTSYADSVKGRFTISRDNAKNTVYLQMNSLKPEVTAVYYCAKESDYPYYVSTKGDYDYWGQGTQVTVSS has what polyreactivity (PSR sort gate)?
low polyreactivity
